Target: Neu5Gc(a2-3)Gal(b1-3)GlcNAc
Test: glycan array binding signal (z-score within array); higher = stronger binding
Settings: glycan notation: IUPAC condensed, linker removed
The full list was thinned out, with the strongest signals kept by preference.
measuredParameter: glycan array binding signal (z-score)
Give the value as a plain number.

Summary for this binder, SBD-G4S3-Fc (protein) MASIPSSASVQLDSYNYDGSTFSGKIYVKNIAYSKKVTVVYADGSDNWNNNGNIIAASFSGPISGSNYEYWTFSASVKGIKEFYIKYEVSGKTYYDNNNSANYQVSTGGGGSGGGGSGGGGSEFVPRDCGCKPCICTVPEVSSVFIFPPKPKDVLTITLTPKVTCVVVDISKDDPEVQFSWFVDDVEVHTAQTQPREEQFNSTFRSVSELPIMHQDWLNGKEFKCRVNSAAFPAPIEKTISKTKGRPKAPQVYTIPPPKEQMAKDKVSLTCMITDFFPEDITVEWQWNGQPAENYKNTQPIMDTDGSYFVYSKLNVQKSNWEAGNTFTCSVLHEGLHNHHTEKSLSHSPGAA : glycan array binding signal (z-score) is -0.167
